Reported OD450, clone binding with PD-1 values are given for each entry in this list.
Molecular target: PD-1 (UniProt Q15116)
Sequence (Q15116 25-170 limits assumed): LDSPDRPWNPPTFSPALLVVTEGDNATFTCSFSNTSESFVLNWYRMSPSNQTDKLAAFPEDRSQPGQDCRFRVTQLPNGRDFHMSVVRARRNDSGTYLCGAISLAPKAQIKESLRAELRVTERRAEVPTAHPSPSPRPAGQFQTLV
Assay: ELISA, TG1 supernatant on coated PD-1, anti-c-myc HRP
Observation type: OD450, clone binding with PD-1

Binder	Observation type	Value reported
NB173 (VHH) VHH: QVQLQESGGGLVQAGGSLRLSCAASGRSFNSYAMGWFRQAPGKEREFVAAISQNGGTQGYAEAVKDRFTISRDNTNKVVALQMNSLKPEDTAAYYCAADGDASDISYAPPRDYEYDYWGQGTQVTVSS	OD450, clone binding with PD-1	2.97 OD450
NB755 (VHH) VHH: QVQLVESGGGLVQAGGSLRLSCVDSGRTFSSYGMGWFRQAPGKEREFVAAVNWRNTTAYYADSAKDRFTISSDNAKNTVYLQMASLKPEDTGVYYCRPYSDYVSYDPTEYDSWGQGTQVTVSS	OD450, clone binding with PD-1	1.7 OD450
NB223 (VHH) VHH: EVQLVESGGGLVQAGGSLRLSCAASGRTFSSYGMGWFRQAPGKEREFVAAVNWSNSSAYYADSVKDRFTISSDNAKSTIYLQMNSLKPEDTAVYYCRPYSDYVTYDPDDYDYWGQGTQVTVSS	OD450, clone binding with PD-1	1.3 OD450
NB170 (VHH) VHH: EVQLVESGGGLVQAGDSLRLSCAASGGTFGRLETGWFRQAPGKEREFVAAISWDGETSYADSVKGRFTISRDNAKNTMALQMNRLTPEDTAVYFCAARVILRAYKYWGQGTQVTVSS	OD450, clone binding with PD-1	2.7 OD450
NB754 (VHH) VHH: QLQLVESGGGLVQPGGSLRLSCAVSGFTFSSDAMNWYRQAPGKERELVASITIDGGSTNYADSVKGRFTISRDNAKNTLYLQMNSLKPEDTAVYYCNADRGIIIYGKTYWGQGTQVTVSS	OD450, clone binding with PD-1	2.04 OD450
NB139 (VHH) VHH: EVQVVESGGGLVQTGGSLRLSCAASGDTALISAMGWYRQAPGKERELVAALTNTGITYYADSVKGRFTISRDNAKNTVYLQMNSLKPEDTAVYYCNAGAPPPGGLGYDESDYWGQGTQVTVSS	OD450, clone binding with PD-1	3.12 OD450
NB216 (VHH) VHH: QVQLVESGGGLVRAGDSLTLSCAASGRTFSSVPMGWFRQAPGNQREFVAAISKSGGSAGYADSVKDRSTISRDNAKNTIYLQMNSLKPEDTAVYYCAASSYDFCSTHGCYDYWGQGTQVTISS	OD450, clone binding with PD-1	2.75 OD450
NB147 (VHH) VHH: EVQVVESGGGVVQAGDSLRLSCVASGRTFSSVAMGWFRQAPGKEREFVAAISRSGGSAGYSDSVKDRSTISRDNAKNTVYLQMNSLKPEDTAVYFCAASELDFCSTLGCYDYWGQGIQVTFSS	OD450, clone binding with PD-1	2.63 OD450
